Exercise: for every item that follows, state its recorded pIC50.
# TARGET: wild type and amino acid substituted PPO enzyme (PPO2) of SEQ ID NO: 2 (AMARE) (Amaranthus tuberculatus, UniProt Q0NZW9, R128Y/F420M, form not given)
# Assay type: biochemical, Amaranthus tuberculatum
Give bare numbers, as −log10 of the molar value.

MOLECULE	pIC50
CCOc1cc(Oc2ccc(C(F)(F)F)cc2Cl)ccc1[N+](=O)[O-] [OXIFLUORFEN]	5.95

Data request: Recorded pIC50 for CCOC(=O)C(Cl)Cc1cc(-n2nc(C)n(C(F)F)c2=O)c(F)cc1Cl (stereo not shown) [CARFENTRAZONE-ETHYL] , please?
Data returned: 7.07

----------
# TARGET: wild type and amino acid substituted PPO enzyme (PPO2) of SEQ ID NO: 2 (AMARE) (Amaranthus tuberculatus, UniProt Q0NZW9, F204I/F457M, form not given)
# Sequence (Q0NZW9 1-534 F204I/F457M): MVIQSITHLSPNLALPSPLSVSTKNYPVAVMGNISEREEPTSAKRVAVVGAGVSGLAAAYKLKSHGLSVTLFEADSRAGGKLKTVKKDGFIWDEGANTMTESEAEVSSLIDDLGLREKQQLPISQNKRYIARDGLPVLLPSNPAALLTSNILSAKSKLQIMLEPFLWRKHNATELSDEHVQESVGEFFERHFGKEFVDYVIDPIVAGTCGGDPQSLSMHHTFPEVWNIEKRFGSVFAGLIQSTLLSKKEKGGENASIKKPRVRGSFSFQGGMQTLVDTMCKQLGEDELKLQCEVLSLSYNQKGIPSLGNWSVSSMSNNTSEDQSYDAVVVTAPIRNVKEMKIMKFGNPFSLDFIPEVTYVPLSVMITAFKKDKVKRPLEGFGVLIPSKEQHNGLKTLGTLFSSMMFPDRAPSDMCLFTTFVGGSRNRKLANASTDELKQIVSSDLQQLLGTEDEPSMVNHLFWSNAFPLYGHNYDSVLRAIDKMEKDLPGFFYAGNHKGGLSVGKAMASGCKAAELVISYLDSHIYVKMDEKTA
VALUE KIND: IC50 (pM)
Numbers only, in pM.

MOLECULE	VALUE KIND	U	ASSAY RESULT
C#CCN1C(=O)C(F)(F)Oc2cc(F)c(-n3c(=O)n(C)c(=S)n(C)c3=O)cc21 [1,5-dimethyl-6-thioxo-3-(2,2,7-trifluoro-3-oxo-4-(prop-2-yny] [reference compound]	IC50	pM	75.2

Attention now turns to another entry.
Data request: // IC50 lookup, key: CC(C)N(C)S(=O)(=O)NC(=O)c1cc(-n2c(=O)cc(C(F)(F)F)n(C)c2=O)c(F)cc1Cl [Saflufenacil, saflufenacil]
Data returned: 18.9

----------
# TARGET: wild type and amino acid substituted PPO enzyme (PPO2) of SEQ ID NO: 2 (AMARE) (Amaranthus tuberculatus, UniProt Q0NZW9, R128A/F420L, form not given)
# Assay type: biochemical, Amaranthus tuberculatum
# CONDITIONS: read-out: IC50
VALUE KIND: pIC50
Answers are plain numbers, as −log10 of the molar value.

Data request: pIC50 lookup needed for `OXADIARGYL` , thanks.
Data returned: 5.86

----------
# TARGET: wild type and amino acid substituted PPO enzyme (PPO2) of SEQ ID NO: 2 (AMARE) (Amaranthus tuberculatus, UniProt Q0NZW9, R128I/F420L, form not given)
# Type: biochemical, Amaranthus tuberculatum
Would you kindly list IC50 for each of these compounds?
Give bare numbers, in nM.

COMPOUND	ASSAY RESULT
CCOC(=O)COc1ncccc1Oc1cc(-n2c(=O)cc(C(F)(F)F)n(C)c2=O)c(F)cc1Cl [A.13, reference compound]	201

The following compounds each have a reported value; give each one's IC50.
1. CCOC(=O)C(Cl)Cc1cc(-n2nc(C)n(C(F)F)c2=O)c(F)cc1Cl (centres unmarked)
2. CCOC(=O)C(C)OC(=O)c1cc(Oc2ccc(C(F)(F)F)cc2Cl)ccc1[N+](=O)[O-] (centres unmarked)

Data returned:
161
130

Dear reader, for each entry below, please note its IC50.
1. C=CCOC(=O)C(C)(C)OC(=O)c1cc(-n2c(=O)cc(C(F)(F)F)n(C)c2=O)ccc1Cl
2. CCOc1cc(Oc2ccc(C(F)(F)F)cc2Cl)ccc1[N+](=O)[O-]

Data returned:
[80.2, 4210]
